measurement-protocol: Half-life in phosphate buffer at 39.5 C and pH 7.2
Type: ADME
Decision: half-life beneath 1000 min gives 1; half-life meeting or exceeding 1000 min gives -1.

compound: CC(C)[C@H](N)C(=O)N1C[C@H]2C[C@H]2C1C#N.O=C(O)C(F)(F)F (stereo not given in full)
assigned-label: 1

compound: CCC(C)[C@H](N)C(=O)N1C[C@H]2C[C@H]2C1C#N.O=C(O)C(F)(F)F (stereo not given in full)
assigned-label: 1

compound: CC1(C(N)C(=O)N2C(C#N)C[C@@H]3C[C@@H]32)CCCC1.O=C(O)C(F)(F)F (stereo not given in full)
assigned-label: -1

compound: CC(C)(C)[C@H](N)C(=O)N1C[C@H]2C[C@H]2C1C#N.O=C(O)C(F)(F)F (stereo not given in full)
assigned-label: 1

compound: CC(C)(C)[C@H](N)C(=O)N1CCC[C@H]1C#N.O=C(O)C(F)(F)F
assigned-label: -1

[ask] Would you kindly verify if half-life of N#CC1C[C@@H]2C[C@@H]2N1C(=O)C(N)C1CCCCC1.O=C(O)C(F)(F)F (stereo not given in full) is strictly less than 1000 min?
[reply] -1

[ask] Lab note: half-life threshold 1000 min. Does this compound come in strictly under it? CC(C)(C)[C@H](N)C(=O)N1C(C#N)C[C@@H]2C[C@@H]21 (stereo not given in full)
[reply] -1

[ask] Record CCC(C)[C@H](N)C(=O)N1C(C#N)C[C@@H]2C[C@@H]21.O=C(O)C(F)(F)F (stereo not given in full) : is its half-life strictly below 1000 min?
[reply] -1

[ask] Identify whether the compound CC(C)[C@H](N)C(=O)N1C(C#N)C[C@H]2C[C@H]21.O=C(O)C(F)(F)F (stereo not given in full) records half-life below 1000 min.
[reply] -1

[ask] For this compound, is half-life lower than 1000 min? CCC(C)C(N)C(=O)N1CCC[C@H]1C#N.Cl (stereo not given in full)
[reply] 1

* * *

The next entries give measured Ki for Dipeptidyl peptidase 4 (Sus scrofa).

Use these answered entries as a reference point.
compound: N#CC1C[C@@H]2C[C@@H]2N1C(=O)C(N)C1CCC1 (some centres undefined)
Ki: 12 nM
--
compound: CN[C@H](C(=O)N1C(C#N)C[C@@H]2C[C@@H]21)C(C)C (some centres undefined)
Ki: 1940 nM
--
compound: N#CC1C[C@@H]2C[C@@H]2N1C(=O)C(N)C1CCCCC1.O=C(O)C(F)(F)F (some centres undefined)
Ki: 15 nM

Quick batch: Ki for everything below.
1. CCC(C)[C@H](N)C(=O)N1C[C@H]2C[C@H]2C1C#N.O=C(O)C(F)(F)F (some centres undefined)
2. N#CC1C[C@@H]2C[C@@H]2N1C(=O)C(N)C1CCCC1 (some centres undefined)
3. CCC(C)[C@H](N)C(=O)N1C(C#N)C[C@H]2C[C@H]21 (some centres undefined)
4. CC(C)[C@H](N)C(=O)N1C(C#N)C[C@H]2C[C@H]21.O=C(O)C(F)(F)F (some centres undefined)
5. CC1(C(N)C(=O)N2C(C#N)C[C@@H]3C[C@@H]32)CCCCC1 (some centres undefined)

[reply]
15 nM
4 nM
1620 nM
29 nM
8 nM

Sure, the documented Ki for N#CC1C[C@@H]2C[C@@H]2N1C(=O)[C@@H](N)Cc1c[nH]c2ccccc12 (some centres undefined) is 230 nM
